All values here come from patent US20050037062A1.

assay: Solubility of compound (Ic) in lipids, surfactants and pharmaceutical cosolvents; assay type: physicochemical; details: oil or lipid; in Soyabean oil; read-out: solubility
QUANTITY NAME: solubility (mg/mL)
Quick reminder: number only, in mg/mL, skip the unit.

For the compound `CS(=O)(=O)C(=C1CN(C(c2ccc(Cl)cc2)c2ccc(Cl)cc2)C1)c1cc(F)cc(F)c1` , what solubility is on record?
31.8

---

assay: Solubility of compound (Ic) in lipids, surfactants and pharmaceutical cosolvents; type: physicochemical; conditions: oil or lipid; in Labrafil M1944 CS (oleyl macrogol-6-glycerides); read-out: solubility
QUANTITY NAME: solubility (mg/mL)
Express it in mg/mL; write the number only.

Looking for the measured solubility of CS(=O)(=O)C(=C1CN(C(c2ccc(Cl)cc2)c2ccc(Cl)cc2)C1)c1cc(F)cc(F)c1 [Compound (Ic)] , can you help?
30.3

---

test: Solubility of compound (Ic) in lipids, surfactants and pharmaceutical cosolvents; type: physicochemical; conditions: organic solvent or mixture; in Transcutol (Diethylene glycol monoethyl ether); read-out: solubility
QUANTITY NAME: solubility (mg/mL)
Kindly provide the numeric value in mg/mL only, without the unit symbol.

State the recorded solubility for this entry: CS(=O)(=O)C(=C1CN(C(c2ccc(Cl)cc2)c2ccc(Cl)cc2)C1)c1cc(F)cc(F)c1 [Compound (Ic)]
89.8

---

Assay: Oral bioavailability in preclinical studies in rats
Conditions: rat, in vivo, aqueous suspension in 0.5% methylcellulose/0.2% tween 80, dose 10 mg/kg
Description: In the first preclinical studies performed in rats, the oral administration of an aqueous suspension of a drug substance of formula (I) in 0.5% methylcellulose/0.2% tween 80 (dose at 10 mg/kg) led to a very low bioavailability (3%). […] Furthermore, this excipient (medium chain triglyceride) is known for its digestibility and regulatory acceptability. […]
QUANTITY NAME: bioavailability
Be sure to follow the number with its unit.

Requested read-out: bioavailability. Entry: CS(=O)(=O)C(=C1CN(C(c2ccc(Cl)cc2)c2ccc(Cl)cc2)C1)c1cc(F)cc(F)c1 [Compound (Ic)]
3%

---

assay: Solubility of compound (Ic) in lipids, surfactants and pharmaceutical cosolvents; assay type: physicochemical; settings: aqueous with cosolvent or surfactant or cyclodextrin; in HP β Cyclodextrin; read-out: solubility
QUANTITY NAME: solubility
State the value with its unit after it.

// lookup solubility for `CS(=O)(=O)C(=C1CN(C(c2ccc(Cl)cc2)c2ccc(Cl)cc2)C1)c1cc(F)cc(F)c1`
50 µg/mL
